// provenance: patent US20150315275A1

# system_tested: T1, human B7-H4 expressed on cells (human, UniProt Q7Z7D3 25-282)
# T1 construct: the cell line is named under assay or readout; also called full length human B7-H4 on HEK293 cells; 293T.hB7-H4
# T1 sequence: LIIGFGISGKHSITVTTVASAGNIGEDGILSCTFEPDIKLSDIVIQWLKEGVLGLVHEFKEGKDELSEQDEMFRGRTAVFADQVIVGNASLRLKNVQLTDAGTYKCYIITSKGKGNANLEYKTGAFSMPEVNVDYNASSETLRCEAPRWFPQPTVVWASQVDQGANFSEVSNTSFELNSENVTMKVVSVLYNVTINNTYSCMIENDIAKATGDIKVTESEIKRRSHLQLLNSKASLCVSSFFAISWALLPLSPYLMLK
# test_protocol: flow cytometry on HEK293.hB7-H4 transfectants, one-site specific binding fit
property_label: Bmax(MFI)
Kindly provide the numeric value in MFI only, without the unit symbol.

humanized 6H3 variant 7 (antibody, V domains shown, also called V7; 6H3 V7) VH: EVQLVQSGAEMKKPGASVKVSCKASGYTFTDYYMNWVRQAPGQSLEWIGVINPYNGDTTYNQKFQGRVTVTVDKSATTAYMELSSLRSEDTAVYYCARYPESTYWGQGTLVTVSS VL: DVVMTQSPLSLPVTLGQPASISCRSSQSLVHINGNTYLHWYLQRPGQSPKVLIYKVSNRFSGVPDRFSGSGSGTDFTLKISRVEAEDVGVYFCSQSTHVPLTFGGGTKVEIK | 513

API: the following record is the query input.
Query: Would you kindly share the measured Bmax(MFI) for humanized 6H3 variant 3 (antibody, V domains shown, also called V3; H2B L1B) VH: EVQLVQSGAEMKKPGASVKVSCKASGYTFTDYYMNWVRQAPGQSLEWMGVINPYNGDTTYNQKFQGRVTVAVDKSATTAYMELSSLRSEDTAVYYCARYPESTYWGQGTLVTVSS VL: DVVMTQSPLSLPVTLGQPASISCRSSQSLVHINGNTYLHWYQQRPGQSPRVLIYKVSNRFSGVPDRFSGSGSGTDFTLKISRVEAEDVGVYFCSQSTHVPLTFGGGTKVEIK ?
Result: 583
